- Measurement Protocol: purified protein yield per well (BCA); higher = higher soluble expression

Seq | purified protein yield per well
QTTAPTSASLNASAGPLSVSTASVTAPRGFGGGTIYYPTTQARYGVIAISPGFTATQTSIAWLGRRIATHGFVVITLNTLTTLDQPDSRANQLMAALNHVINSSSSAVKARIDTSRLAVAGHSMGGGGALIAARDNPSLKASYPLTPWNINSAFSTVRVPTMIVGADGDTVAPVGTHARPFYAALPGATSKAYGELNGATHFSPNSTNTPIGRYGVAWMKRFLDGDTRYSTFLCGTEHTRYATALVFDRYNQNCPY [ESM122] | < 25 µg
ADNPYQRGPDPTPQSISAPTGPFATASVTVPRQGNFGGGVIYYPTDTSQGTFGAVAISPGLNGTWPGIAWLGPRLSSQGFVVFGIDTLGLSDSTASRGSQLLAALDYLTQTSSVRTRVDSSRLAVAGHSMGGGGAFEAALRRPALKAAIPNAPFFPGSASNVRVPTLITAMQNDSLVGQNRNAYNGIPAGVEKAYVELAGAGHNQIGQPTTAIARNWIPWLKIFVDSDARYHQFLCPTTDMSGLSQYLNTCPLISTTPPTSSPSAQPTTPGPTGPPPGGACAATYRTVNSWSDGYQGEMTVQAGSSAINGWTVRWTMSGGQTISQVWNGTLVAGSGAAAVRNVAYNGSLAAGASTTFGFISSGTPSATSITCGSP [ESM081] | 182 µg
APAESAQRAASPYERGPAPTEQSVSAKLGPFAFTQVPAPANASAGFNQGTVYYPNDTGQGTFGAIAITPGFLSPESSIGWLGPRLASNGFVVITLTTNSPVDFPGGRAAQMRAALDWVTKQAPDAIRSRIDPTRLGVMGWSMGGGGTLEVANTHPNIQAAVPLAPWHLTNNWSTVKVPTMIIGAQNDLIAGVGAHSEPFYESLKSAPERAYAEIKGGNHFSVTVDTPLVGKLATSWMKRFIDDDTRYDQFLCPKPTDSTLSEYRDSCPNG [DP035] | < 25 µg

---

- Measurement Protocol: PET hydrolysis, aromatic products released after 48 h (umol product/mg enzyme); higher = more PET depolymerization activity
- Assay Setup: substrate: cryPow; 40 °C; pH 5.5

Seq | PET hydrolysis
DEIGQAPTASNITGNGSFATTSESISSLVSGFGGGRVYYPTATGRYPVIAISPGFTATWSSLAWIGPRLSSWGFVVVGIETNSIYDQPGSRGNQLLAALNWAVNSSSTAVRSRVDGSRRGVAGHSMGGGGTLEALAADTSGLVKAGVPLAPWNTDKIWSNVSEPVLIVGGQADTIAPVATHSVPFYNTLAGPKTYVELTGASHFFPQTTNATTSRALVSWFKRWLNQDSRFTPYTCGFGGLAVSDFRSNAC [ESM147] | 29
VQIGPNPTKSSLEASRGPFSTSQFTVSRPSGYGAGTVYYPTNAGAKVGAIAIVPGFLSYQSSINWWGPRLASHGFVVITIDTYTTGDQPDSRSRQQLAALDQVIALGNTSSSPIYGKVDGSRTGVMGWSMGGGGSLISAKNRPSIKAAAPQAPWNTSTNFSSVTVPTLIFACQSDIVAPVISHAIPFYNSMTRNPKQYLEKTLGDHFCFNNANATVGLKGVAWMKRFVDGDTRYTSFACSNPNAFGFSDFRTARCS [ESM045] | 12
DQIGQAPTASNITGNGSFATTSASISSTVSGFGGGRVYYPTAAGTYPVIAISPGFTATWSSLAWIGPRLSSWGFVVVGIETNSIYDQPASRGNQLLAALNWAVNSSPTAVRSHVDGSRRGVAGHSMGGGGTLEALAADTTGLVKAGVPLAPWNTDKTWNNVSEPVLIVGGQADTVAPVASHSIPFYNTLAGPKTYVELTGQSHFFPQTTNATASRALVAWFKRWVSQDSRFTPFTCGFSGVAVSDFRSNAC [ESM082] | 22

---

- Measurement Protocol: PET hydrolysis, aromatic products released after 48 h (umol product/mg enzyme); higher = more PET depolymerization activity
- Assay Setup: substrate: cryPow; 40 °C; pH 7.5
Reported Property: PET hydrolysis

Seq | Experimental Result
MLTITVATGSASAADNPYQRGPDPTRTSVTAVNGPFANTSVSVPTGYGFNGGRIYYPTDTSQGTFGAIAISPGYTALFSAELAWMGPWLASHGFVVIGIETNSRNDFDTARGTQLLAALDYLTQQSPVRDRVDPNRLAVAGHSMGGGGALSAATRRSSLKAVVGIAPYSPSSNLANDRVPTMIFAGQADTVVTPSYATGLYNSLPTTTESAYLEVAGADHGFMVGRSNPVMVRTMLPFVKMFIDNDARYSQFLCPLLDSSGVVTYRSTCPLLPSTPPTSTPTPTDPPTPTPTPTVPPGSASEIVGTQSSRCIDVPNASRNNGTRVQLYDCNKQTNQA [ESM121] | 2.5

---

- Measurement Protocol: purified protein yield per well (BCA); higher = higher soluble expression

Seq | purified protein yield per well
ADNPYERGPNPTESSIEATRGHYSVSEESVSSLAPGFGGGTIYYPTTRTDGTFGAVAVVPGYTASESSIEWLGARVASQGFVVFTIDTTTRLDQPAQRGDQLLAALDYLTERSDVADRVDPSRLAVMGHSMGGGGTLEAAKDRPSLKAIIPMTPWNLDKTWGDVEVPMLDFGAEYDSIASPASHAKPFYNTHGGEKMYIELNSAGHFAPNSSNTTIAKYSISWLKRWVDNDTRYTQFLCPTPTSWLYIEESASTCGF [TEP142] | < 25 µg
ATYERGPAPTAQSIVADGPFSYATVAVPTQSSFGGGTIYYPTDTNQGTFGAVAVIPGFVGSLDNVAWIGSRLASHGFVVFTVATTNPFAFPGDRAAQLQAALTYLTQSSSVRDRVDPNRLAVAGHSMGGGGALEAVRNNPALKAAVALQPWDFGQNFSAIAVPSMIVGAQNDQVATVTSHSEPFYDQIPAGAEKAYLELAGAGHDAGQSVSNATQAGSMLSWLKRYVDEDTRYEQFLCPAPSGPSVAEYRDTCPA [DP045] | 37 µg
AGNPYQRGPDPTLASVAASRGTFATAQVSVPPGNGFNGGTIYYPTDTTQGTWGAVAIVPGYTALFANEEAWMGPWLASFGFVVIGIETNSRNDFDTARGTQLLAALDYLTQKSPVRDRVDSARLGVIGHSMGGGGVVYATEHRPSLKAAVALAPFSPSQDMSTDHVPTMVMAGQNDTVVTPSYLDGLYATMPASAQSDFVQLAGADHVAYTHPNTTEMRLLIPWLKIFLDDDTRYTQFLCPLKDSTGVSMYRAKCPYVPPGGPTTSPTPTTTPTPPDGGACSATYRTVNSWSGGYQGEITVTAGGAAIDGWTVRWSLGGGQTVTQVWNGTLSTSGSTASVANASYNGSLQASASTTFGFLANGTPSTPALTCSSP [ESM084] | 119 µg

---

Quick reference: PET hydrolysis of the listed items.
- Measurement Protocol: PET hydrolysis, aromatic products released after 48 h (umol product/mg enzyme); higher = more PET depolymerization activity
- Assay Setup: substrate: cryPow; 40 °C; pH 4.5

Seq | PET hydrolysis
SNPTPTPTPTPTPTPTPGNNPFQRGPNPTLSFIEANSGPYSVRTSRVSSYTSGFGGGTIHYPTGQSGTMGAIVVIPGFVSAESSIEWWGPKLASHGFVVMTIDTNSGFDQPPSRARQINAALDYLVAQNRSSRSPVRGMIDTNRLGVVGWSMGGGGTLRVASEGRIKAAIPLAPWDTTSFRNVKAPTLIFACESDVIAPVGQHASPFYNELPSNISKAFVELNGGSHYCGNGGNSYNDVLSRFGVSWMKRFLDNDTRYSQFLCGPNHTSDRDISEYRGNCNY [ESM042] | < 3
ADQRGPDPTVQSIEAARGPFATSTSRVSSLVSGFGGGTIYYPTDTSQGRFGGVVIAPGYTAGESSIAWLGPRLASQGFVVFTIDTLTRVDQPASRGRQLLAAADYLTQRSDVADRVDPARLAVMGHSMGGGGTLEAAKSRPGLKAIIPLTPWNLDKTWPEITTPTLIFGAQNDSVASVVTHARPFYQSLPATTPRSYLELRGASHFAPNLSNTTIAKYSIAWLKRFVDDDQRYTQFLCPAPADTALSDVRTSCPF [TEP091] | < 3
ADNPYERGPDPTESSIEASRGPFAVSQTTVSSLAVTGFGGGTIYYPTDTSQGTFGAVAISPGYTADQSSIAWIGPRLASQGFVVFTIDTITRYDQPASRGDQLLAALDYLTQRSSVRGRIDSSRLGVAGHSMGGGGTLEAAEERPSLQAAVPLAPWNLQKNFSGVRVPTFIIGGESDTVAPVATHSEPFYTSLPSTLDKAYMELNNASHFFPNTPNTTMAKYMISWFKRFIDDDTRYDQFLCPNPSGLAIEEYRSTCPY [TEP089] | < 3

---

- Measurement Protocol: PET hydrolysis, aromatic products released after 48 h (umol product/mg enzyme); higher = more PET depolymerization activity
- Assay Setup: substrate: cryPow; 40 °C; pH 8.5
Reported Property: PET hydrolysis

Seq | Qualifier Sign | Experimental Result
APDTVVGNPFARGPDPTKESIEAERGPFAVATEKVPGGKGFGGGTIHYPTDTSQGTFGAIAVAPGFTESESAIAWYGPRLASQGFVVITISTNGLWDLPASRADQLLAALRHVTDASQIKSRVDRDRLAVMGHSMGGGGSLIAARNNPALKATIPLTGWNPNTSFSDLKVPTFVVSAQNDFIAPDGSHSRPFYQSLPASLNKAYMRLAGVGHMAPVNPNVTIAKYSISWLKRFVDNDTRYSQFLCPLPTGDPKIAAYEGTCPLS [DP008] | = | 50
DTNPFQRGPAPTEASVSAQKGPFATAQVNVPANSGEGFNDGTIYYPTDTSQGTFGAIAVMPGFLSPQDWIRWYGPTLASQGFVVMTLDSKGFIDSPTARGNQLLAALDYLTTKSKVVDRIDTSRLGVVGWSMGGGGALESTYNRPSLKADVALAPWHVGLDQSKITVPSLILADDNDWLAPTGSFAKPFYAGIPESTNKAFIELKNANHFTFTGYNKNIAKYAVSWLKRFVDDDTRYDQFLCPKPATNNEISQSEETCPLH [DP054] | < | 3
